Catalogue of IC50 values
TGT: OachGOBP2 (Orthaga achatina, UniProt H6UEU3)
Sequence (H6UEU3 entry or part of it): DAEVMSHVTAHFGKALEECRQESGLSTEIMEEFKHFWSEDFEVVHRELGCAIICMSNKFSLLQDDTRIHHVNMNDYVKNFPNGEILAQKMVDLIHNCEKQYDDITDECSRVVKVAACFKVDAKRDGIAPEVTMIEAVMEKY
ASSAY_METHOD_TEXT: Fluorescence competitive binding assay (1-NPN displacement), OachGOBP2

Example compounds with recorded IC50:
COMPOUND	ASSAY_VALUE
C=C1CCC2CC1C2(C)C (centres unmarked)	> 32 µM
CC(=O)/C=C/C1C(C)=CCCC1(C)C (centres unmarked)	> 32 µM
C=CC(C)(O)CCC=C(C)C (centres unmarked)	13.9 µM
CC(C)=CCC/C(C)=C/CO	> 32 µM
O=C/C=C/c1ccccc1	> 32 µM
CC(=O)/C=C/C1=C(C)CCCC1(C)C	17.8 µM
CC1=CC[C@H](C(C)C)C=C1	10.2 µM

Let us move to another entry and its IC50.
// returns IC50 for `O=CCCCC=O` with OachGOBP2 (Orthaga achatina, UniProt H6UEU3); value = > 32 µM
